TESTED_SYSTEM: Diaphorase
ASSAY_DETAILS: peptide array, 1 uM diaphorase, measured binding without FAD / with FAD
MEASURED_PROPERTY: Meas. ratio (noFAD/FAD)

HVYGLNLFDGSG; 0.72
LFDNVLEFVEDGS; 0.69
VSWVFGLGHEGGS; 0.71
ALDKLSGLWKHVG; 0.69
